target: New Delhi metallo-β-lactamase-1 (NDM-1) (Klebsiella pneumoniae); experiment: biochemical
Sequence (C7C422 29-270 limits assumed): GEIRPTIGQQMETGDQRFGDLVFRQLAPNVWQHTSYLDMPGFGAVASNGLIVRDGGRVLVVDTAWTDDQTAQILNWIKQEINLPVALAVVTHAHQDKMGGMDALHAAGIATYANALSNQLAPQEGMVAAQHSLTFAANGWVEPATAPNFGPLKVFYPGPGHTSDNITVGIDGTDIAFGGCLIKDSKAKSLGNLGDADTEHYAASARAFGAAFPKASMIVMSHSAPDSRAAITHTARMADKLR
measured.parameter: IC50
Provide a numeric answer, followed by its unit.

(Q) Specify IC50 for O=P(O)(O)C(O)(Cc1cccnc1)P(=O)(O)O [risedronate] and stop.
(A) 24.6 µM
